Give apparent KD of K4 kissing-loop reporter for every item shown.
# Test system: K4 kissing-loop RNA reporter
# assay-procedure: apparent KD of K4 kissing-loop reporter; higher = weaker reporter binding
# condition-details: Eterna round: R107; input ligand: arginine 13.2 mM
Just the number please, in nM, no unit attached.

Which value of apparent KD of K4 kissing-loop reporter has been reported for AAGAGGUAGGCGGCCGCCACUUGUUGUGAACACAUACGAGCCAGUGAUGUUGGUAUUGUGUGCGGAAGGACCGGGCCUACCUGAA [Exclusion - Tryptophan B (Freestyle 21)] in the records?
173

Now give it for AAGUGAUGUUGUAGUGAUGUUGUGAUGUUGCAGGAUAUAUAGUGAUGUAGAAGGGUAUGUGCAGUUUUCUUAUUUGAGUGUUGAU [zwzamullin] too.
33.2

Here is the next sequence: GCGAUUCAGUGAUGUUGGAAAUACAGGGAUACCAGCCGAGAAUAAGGCCCUUGGCAGCUUAAUAGGAAAGAACUAAGUAAGACGC [Theophylline A Same State; Euphoria Solution 2]
569

Can you handle AUUCGUCUCUGAGGAUAUCAGAGGAGAGUGAUGUUCUCCCAUAGCCCAGUGAUGUUGGAUGCUAUCUGAGAAGGCAGUGGGCGAA [Same State FMN B GF 14] next?
203

Now the sequence UGACAUUGCUCAGAUACCAGACUUGAGGAACACCCAAGUGCCAAAUAAACGUACAUAAAAGUCCCUUGGCAGCUGAGCAAUGUCU [TheoBX 11]
34.1

Check AAAAUAAUCCAGUGAUGUUGGUAUCCAGAUACCAGCCAGGAAACUGGCCCUUGGCAGCUGGCGACGUACAAAAUAAGUACGUCGU [#OpenEnded 11 #StaticStem #K4Early] too.
184

Would you kindly repeat that for GGUGUUGUUUGUGCUGUUUUCCUCGUUCCUCGAGGACCGGUACGGCCGCCACUCGAGUGAUGUUUGGGUAGCGAUCCUUGUUAGU [Bdazzled - #7 Exc. Tryptophan A] ?
226

Input GGAUAGGACAGAGGAUAUGGACAGUCUACAAAGUAGGCUGAAAAUCCUUGAAUGGAAGUGAUGUUUCCAGAAGGCUGUCCUAUCG [FmnBX 20 - #SwitchBubble #StaticStem #Palindromic]
145

What about GUACCAGUGAUGUUGGUAGGCGAGCGGGAUACCAGCCAAGACUCAGGCCCUUGGCAGCCCACAUAUCCCACGUAGGUAGUAGCUC [Same State - Theophylline A (Freestyle 17)] ?
103

Queued: GGCACUUUUGGUAGGAACCAUCUACCUCUAUAGGAUAUGCCGAAAGGCAGAAGGAUAGACCUACAGAGUGAUGUUCUGCGUGCCU
150

Here is the next sequence: ACGUAGUACGUAGGAUAUCAGAGAUCAGUUAGUGAGAUCGAGUGAUGUUCGAUCAUGUGUUCAUUUUGAGAAGGAUGUAGUAGGA [KL-SSFMN-B6]
302

Would you kindly repeat that for UAAUAAAUUCCAGCGAUGUCACUCUUCGAAGGAGCGGACGAAAGUCCAGGUAGGUCGCGAAGAGUGAUGUUCUUCGCGGCGCUGG [Omei KL Arginine A Exc A v3] ?
115

Then this sequence: CGAGUCCUGAGGAGUGAUGUUCCUCGGCCACGAGGACCGGUACGGCCGCCACUCGUUACUCGGGCUUAGCAGCAAGCACUAAGCU [Acesote]
317

Please do the same for AGAUGGAAUAGAAGGAGCGGCGCCAGUGAUGUUGGAUGCCGCGGGUGAAUCAGAUCAUAGUGCCAGGUAGGUCGCUAUUUCAGCG [Anedin] as well.
101

Repeat for the following sequence: UGUAUGUGAUUUGAUACCAGACCAGCUGGUGGAAUCUGAGUGAUGUUCAGGUAGGUUUGGGUCCCUUGGCAGCAAAUCGCAUACU [KL-SSTheoB27]
145

And GAAUAAUAUGUACCAGUGAUGUUGGUACAACGAGGACCGGUACGGCCGCCACUCGGAUACGAGUGGAUACAUCACUGACCAUUCG [(H1)-(H2)-(Trp1)-(Trp2)-(T)'-(H)'-(T)''_Design9] ?
308

And for UAUAGCGUCAGAAGGAGCGUGAGUAUAACAUGGCUGGAGUGAUGUUCCAGGAGUUAAUACUCACAGGUAGGUCGCUGACUCCUGG [Arg B SS t2] ?
125

Entry to check: AGUCCACUCUAAAGAGUGGACCUAAGGGAUACCAGUGAUGUUGGUCACCCUUGGCAGCCCGCUGUCAUCGAUAAAGAUGGCAGUA
107

And what about the sequence CCUCACGUAGGACUAGUGAUGUUAGACUACCGAGGACCGGUACGGCCGCCACUCGUCGUACAAGAUAACCUUCCGCCAGUAUACA ?
91.8

Now consider CUUUUACAGUCGGCCGCCACUGACAGCACUUCAAAGACAGUAUAAGGGUAGUGAUGUUACUUUAUCAGGACCGGGACUACCUAAC [theeternabot_sameState_KL_Trp_B_3] .
121

Param item: AGACUACUGAUAGGAUAUAACAUCCUAGUCGUAUACCGAAAGGUAUACGAUUUCCUUCUAGUGAUGUUAGAAGGGUCGGUAGUCA [Omei KL FMN B Exc B v11]
82.4

Field entry: AGGUCCGAGCCCGGAAGGGCUCGGACCUGUUAGGAUAUGACGUGAUUCAGAAGGGAUGGGUGGAGUGAUGUUCCACCCGAGAGGG [#2 Same State - FMN A Attempt #20 (HarryS)]
89.3

Similarly, GCCGUACGCAUGGAUACCAGUCUUUCGCGACUGGACAUGGAGUGAUGUUUCGUGAUGCUAGACCCUUGGCAGCCAUGCGUACGGC ?
163

====

# Tested on: MS2 coat protein
# assay-procedure: apparent KD of MS2 coat protein; designed switch direction (-1 OFF switch, 1 ON switch): -1; higher = weaker reporter binding
# condition-details: input ligand: FMN 200 uM
Label rule, in plain words: apparent KD of MS2 coat protein of 70 nM and up is Criterion met, under 70 nM is Criterion not met.

For this sequence, is measured apparent KD of MS2 coat protein 70 nM or higher? GUCCUGGCUUUUCACAGGCACAUGAGGAUCACCCAUGUCGUGGGUAGAUCCCUCCCUGGGAAAUCUGCUCGUCUUAU [Cac Sensor turn off v1 sub12] (Eterna round: R97, puzzle: Sensor, turn-off variant 1)
Criterion met

Input GGGUGACAUGAGGAUCACCCAUGUCAGGAUAUGGGCCCGGGCCCGAAAGGGCCCGGGUUUAGAAGGGACUGCCC [-44.4, -43.4 kcal, 22%A (-3 GC series)] (Eterna round: R97, puzzle: Exclusion 1)
Criterion not met

Further, for CCCUCACUUGAGGAUCACCCAAGUCAGGAUAUCUCCCGCCCAACACCAUCCGGGCGCCAGAGAAGGGACUCAAA [Soenonor] (Eterna round: R97, puzzle: Exclusion 1) ?
Criterion not met

AAUUUACAUGAGGAUCACCCAUGUGAGGAUAUGGAUUCGCUGGCCGUAGCCAGUGGAUCCAGAAGGCGCAUGAU [JL-ex1-4.12] (Eterna round: R97, puzzle: Exclusion 1) ?
Criterion met

====

# Test system: K4 kissing-loop RNA reporter;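 further: bound reporter read as fluorescence of individual clusters on recovered sequencing chips by microscopy, with normalized cluster intensities fitted with a binding model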
# assay-procedure: apparent KD of K4 kissing-loop reporter; higher = weaker reporter binding
# condition-details: Eterna round: R107; input ligand: tryptophan 2.4 mM
Please respond with reported apparent KD of K4 kissing-loop reporter for every item in the list.
Dear colleague, please return just the value in nM, with no unit written.

Entry CAGCAUCUGAGUGGUAGCCAUUGAGAGAUGCAGGAUAUCUGGAAACAGAGAAGGGCAGUGAGUGAUGUUCACGGCUGGCUUGGUU has what apparent KD of K4 kissing-loop reporter?
110

How about this sequence: GCCGUACGCAUGGAUACCAGUCUACAUCGCAGUGAUGUUGCGUAGUUCAGAUUAACUGCCGACCCUUGGCAGCCAUGCGUACGGC
120

Request: UUAAAAUAUAUAAAUAAUAAGGGAAUUGAUACCAGACAGAAUUCUGUCCCUUGGCAGCAGUGAUGUUGUUGCAAUUUAAAUAAUU [AK1 Exc Theophylline A]
85.7

What about this sequence? UGGAGUUGACGAAAAGUCAACUCCCGAGAAGGAGCGGACGAAAGUCCAGGUAGGUCGCUCGCUACCAGUGAUGUUGGUACUCAAA
135

Next up: AGAUAGGGCUGAAGGAGCGUCGGAGAAGAGAAGAAGGAAUCCAGUGAUGUUGGAUAAAUCCGACAGGUAGGUCGCAGUUUUAUGA [hbob_SS_Arginine_B_2t138]
115

Try this sequence too: UUAAUAAUUCAAGGAUAUGUUUUCUAUUUCGAGUGAUGUUCGGUAUUAAUAAAUUUAAUAGAUUAUACAGAAGGUGAUGGAUAGU [Cynwulf-mod#5]
65.8

Also AAUAUAAAGUCGGCCGCCACUGGAUUUAUAUUUGUUAAAUCUGGAUCAAAGUGAUGUUUUGAGUCCAGGACCGGGACAAUUGUUA [JR_ExcTryptoB_Sub001] ?
203

ACGUAGUACGUAGGAUAUCAGAGAUCAGUUAGUGAGAUCGAGUGAUGUUCGAUCAUGUGUUCAUUUUGAGAAGGAUGUAGUAGGA [KL-SSFMN-B6] , same question.
228

Would you mind doing GCCGUAGAUCGAAGGAGCGUGUCCAAACCUCAUUCAUGUACACACGAGUGAUGUUCGUGUACACAGGUAGGUCGCGAUCUACGGC [#04 K4 Arginine B Exclusion] as well?
310

Same thing, different sequence: GGAUAGGAUAGAGGAUAUGGACUAGGCAAGAAUAACUUGUCUAGUAAAUCCAUGAGGAGUGAUGUUCCAGAAGGCUGUCCUAUCG [MatMod 3 - Jieux - Exclusion - FMN B]
185

Also UCCAAGGACGAACCGGUAUGAUCACCGGAUACCAGAGGCGAAAGCCUCCCUUGGCAGCCGAGUGUAGUGAUGUUACACUGGUUCU , if possible.
91.5
